Test: NOVARTIS: Cytotoxicity against human hepatocellular carcinoma cell line (Huh7)
Type: toxicity, cell-based, Huh-7
Conditions: Huh7 cells (hepatocellular carcinoma cell line)
measure-name: CC50

molecule=Cc1ncc(CN2CCC(C(=O)Nc3ccc(-c4nc5ccccc5o4)cc3)CC2)s1 measure_name=CC50 result="> 100 µM"
molecule="COc1ccc(C(NC(=O)COc2ccccc2)c2cc(Cl)c3cccnc3c2O)cc1OC (configuration not stated)" measure_name=CC50 result="18.5 µM"
molecule=CCc1nnc2sc(-c3ccc(NC(=O)c4ccc(Br)o4)cc3)nn12 measure_name=CC50 result="> 100 µM"

Next:
stdin: So what's the measured CC50 for this one? CCCc1nc2ccc(NC(=O)c3ccco3)cc2c(=O)n1Cc1ccc(-c2ccccc2)cc1
stdout: > 100 µM

---

System: Plasmodium falciparum
Assay: NOVARTIS: Inhibition of Plasmodium falciparum W2 (drug-resistant) proliferation in erythrocyte-based infection assay
Format: functional, organism-based
Conditions: Plasmodium falciparum, W2; read-out: EC50
Rule for this label: yes means EC50 is less than 0.9 µM; no means EC50 is at least 0.9 µM.

compound="CN1CCCC1CCNCc1cc(-c2ccnc3cc(Cl)ccc23)ccc1O (stereo unspecified)" class=yes

stdin: Does the reported EC50 of the following compound sit strictly below 0.9 µM? COC(=O)c1sccc1S(=O)(=O)N1CCCC(c2[nH]ncc2-c2ccccc2)C1 (stereo unspecified)
stdout: no

stdin: Lab note: confirm whether the reported EC50 for this compound is below 0.9 µM, equality not counting. compound: O=C(O)c1cccc(NC(=O)c2ccc(N3C(=O)c4ccc(C(=O)Nc5cccc(C(=O)O)c5)cc4C3=O)cc2)c1
stdout: no

stdin: Given the entry Oc1ccc(-c2nc3ccccc3s2)cc1CN1CCCCC1 , would its reported EC50 be below 0.9 µM?
stdout: yes

stdin: State whether 0.9 µM exceeds EC50 recorded for CN(C)CCNc1ncc(C(=O)NCc2ccccc2)c(NCCc2ccccc2)n1 .
stdout: yes

stdin: Bench note: check whether N=c1n(CCN2CCCCC2)c2ccccc2n1CC(O)c1ccc(Cl)c(Cl)c1 (stereo unspecified) shows EC50 below 0.9 µM
stdout: yes

stdin: Criterion: EC50 strictly below 0.9 µM. Is it met by O=C1CC(c2ccc(O)cc2)C2=C(CC(c3ccccc3Cl)CC2=O)N1 (stereo unspecified) ?
stdout: yes

stdin: Determine whether this compound shows EC50 lower than 0.9 µM (ties excluded): CCCCCc1ccc(C(=O)N(C)CCCNc2ccnc3cc(Cl)ccc23)cc1
stdout: yes

---

Assay: NOVARTIS: Cytotoxicity against human hepatocellular carcinoma cell line (Huh7)
Type: toxicity, cell-based, Huh-7
Conditions: Huh7 cells (hepatocellular carcinoma cell line)
Each entry below lists one item and its recorded CC50 value.

stdin: I'd like to know its CC50. The molecule in question is CN1CC=C(/C=C/c2c[nH]c3ccccc23)CC1
stdout: > 10 µM

stdin: // query CC50 value for entry CCOC(=O)c1ccc(N(C(=O)Cc2c[nH]c3ccccc23)C(C(=O)NC2CCCCC2)c2cccnc2)cc1 (stereo not given)
stdout: > 100 µM

stdin: Fill in: CC50 of CCOc1cc(-c2nc3c(=O)n(C)c(=O)nc-3n(C)n2)ccc1OC(C)C is ___
stdout: > 10 µM

stdin: Entry CC(=O)Nc1ccc(-c2nc(-c3ccc(Oc4ccc(-c5[nH]c(-c6ccc(NC(C)=O)cc6)nc5-c5ccccc5)cc4)cc3)c(-c3ccccc3)[nH]2)cc1 : reported CC50 = ?
stdout: 50.1 µM

stdin: Value lookup for CC50; key = CCc1c(C)c(=N)c2ccccc2n1C
stdout: > 100 µM

stdin: // query CC50 value for entry Cc1cc(Nc2ccc(O)cc2)nc2cccc(O)c12
stdout: 52.5 µM

stdin: Consider the molecule C(#Cc1ccccc1)CN(Cc1ccccn1)Cc1ccccn1 and give its measured CC50.
stdout: > 14.1 µM

stdin: Param item = O=C(Nc1cccc(-c2nc3ccccc3[nH]2)c1)c1ccccc1[N+](=O)[O-] ; retrieve measured CC50.
stdout: > 6 µM

stdin: Item COc1cccc(C2(NC(=O)CCn3ccnc3-c3ccccc3)CCCC2)c1 has what recorded CC50?
stdout: > 10 µM

stdin: For CC1CC(N(C(=O)c2ccc(Cl)cc2Cl)c2ccccc2)c2ccccc2N1C(=O)c1ccc(Cl)cc1 (stereo not given) , what is its reported CC50?
stdout: > 100 µM
